Molecular target: Matrix protein 2 (Influenza A virus)
Sequence (P06821 whole entry): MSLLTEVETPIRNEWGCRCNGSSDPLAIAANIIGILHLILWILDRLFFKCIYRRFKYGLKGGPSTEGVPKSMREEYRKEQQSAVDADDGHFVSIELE
propertyMeasured: IC50 (µM)
Dear colleague, please return just the value in µM, with no unit written.

Worked set:
chemSmiles	IC50 [µM]
C1C2[C@@H]3[C@H]2[C@@H]2C1[C@H]3[C@@H]1CNC[C@@H]12	3.3
N=C(N)N1C[C@@H]2[C@H](C1)[C@@H]1[C@@H]3[C@H]4C=C[C@H]5[C@@H]3[C@H]2[C@H]2[C@@H]5[C@@H]4[C@@H]12	6.5

Entry N=C(N)N1C[C@@H]2[C@H](C1)[C@@H]1[C@@H]3[C@H]4CC[C@H]5[C@@H]3[C@H]2[C@H]2[C@@H]5[C@@H]4[C@@H]12 : reported IC50 = ?
3.7
